system tested: T1, Fusion protein of extracellular domain of human TIGIT and mouse IgG2a Fc fragment (human TIGIT ECD-mFc) (human)
T1 construct: The entry includes the signal peptide (limits not recoverable) and the mouse IgG2a Fc
T1 chain: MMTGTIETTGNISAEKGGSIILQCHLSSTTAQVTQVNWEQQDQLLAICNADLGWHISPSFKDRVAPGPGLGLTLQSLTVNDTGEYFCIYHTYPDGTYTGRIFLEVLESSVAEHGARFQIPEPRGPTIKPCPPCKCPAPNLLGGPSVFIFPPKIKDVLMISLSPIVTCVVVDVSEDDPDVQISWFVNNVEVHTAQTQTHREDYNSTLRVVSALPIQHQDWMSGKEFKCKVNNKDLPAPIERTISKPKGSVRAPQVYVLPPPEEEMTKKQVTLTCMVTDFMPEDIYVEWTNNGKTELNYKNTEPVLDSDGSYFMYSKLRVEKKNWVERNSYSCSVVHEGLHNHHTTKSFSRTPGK
assay text: ELISA, human TIGIT ECD-mFc
EC50 strictly under 20 pM means yes; at 20 pM or over means no.

binder	label class
TIGIT-CHI-006 (antibody, V domains shown, Human-mouse chimeric antibody) VH: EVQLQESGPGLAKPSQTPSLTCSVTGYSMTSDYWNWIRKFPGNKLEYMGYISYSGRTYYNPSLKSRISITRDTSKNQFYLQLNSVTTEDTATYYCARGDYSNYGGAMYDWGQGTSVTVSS VL: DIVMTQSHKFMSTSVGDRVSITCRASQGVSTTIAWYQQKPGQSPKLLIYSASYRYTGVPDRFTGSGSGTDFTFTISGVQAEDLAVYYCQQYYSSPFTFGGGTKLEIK	yes
TIGIT-005-H2L1d (antibody, V domains shown, Humanized anti-TIGIT antibody with NG-site mutation in VL) VH: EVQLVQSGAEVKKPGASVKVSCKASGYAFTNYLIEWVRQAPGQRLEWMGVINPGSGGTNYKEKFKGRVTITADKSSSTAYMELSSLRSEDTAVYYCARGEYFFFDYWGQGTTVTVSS VL: DIVMTQSPDSLAVSLGERATINCKASQHVSNAVAWYQHKPGQSPKLLIYSASYRYTGVPDRFSGSGSGTDFTLTISSLQAEDVAVYYCQQHYNTPHTFGGGTKVEIK	no
TIGIT-002-H4L3 (antibody, V domains shown, Humanized anti-TIGIT antibody) VH: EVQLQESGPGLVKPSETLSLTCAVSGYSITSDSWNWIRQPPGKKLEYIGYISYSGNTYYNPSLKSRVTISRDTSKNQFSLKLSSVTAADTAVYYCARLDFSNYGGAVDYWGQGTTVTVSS VL: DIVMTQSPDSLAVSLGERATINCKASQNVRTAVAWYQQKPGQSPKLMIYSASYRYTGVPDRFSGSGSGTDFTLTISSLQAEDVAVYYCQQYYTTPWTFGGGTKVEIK	yes
TIGIT-006-H1L2 (antibody, V domains shown, Humanized anti-TIGIT antibody) VH: EVQLQESGPGLVKPSETLSLTCAVSGYSITSDYWNWIRQPPGKGLEWIGYISYSGRTYYNPSLKSRVTISRDTSKNQFSLKLSSVTAADTAVYYCARGDYSNYGGAMYDWGQGTTVTVSS VL: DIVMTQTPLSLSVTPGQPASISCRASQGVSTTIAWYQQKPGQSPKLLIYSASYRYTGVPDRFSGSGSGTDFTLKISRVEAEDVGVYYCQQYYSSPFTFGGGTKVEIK	yes

Now consider the entry below.
Enquiry: Hello, is EC50 of the following binder strictly smaller than 20 pM? TIGIT-070-H2L1 (antibody, V domains shown, Humanized anti-TIGIT antibody) VH: EVQLVQSGAEVKKPGASVKVSCKASGYTFTNYYMHWVRQAPGQRLEWMGRIDPDSGGSKYNEKFKSRVTITVDKLSSTAYMELSSLRSEDTAVYYCAREGHYGFYSDYWGQGTTVTVSS VL: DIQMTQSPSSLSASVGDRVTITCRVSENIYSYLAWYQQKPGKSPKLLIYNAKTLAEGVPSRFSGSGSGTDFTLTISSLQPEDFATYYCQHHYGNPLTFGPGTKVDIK
Return: yes
